biological target: UniProt:P03951; test: Factor XIa inhibition assay utilizing a fluorophore-quencher pair peptide substrate (FLINT); format: biochemical; conditions: cells that print μM themselves in the nM column; read-out: FXIa Ki
Sequence (P03951 388-625 limits assumed): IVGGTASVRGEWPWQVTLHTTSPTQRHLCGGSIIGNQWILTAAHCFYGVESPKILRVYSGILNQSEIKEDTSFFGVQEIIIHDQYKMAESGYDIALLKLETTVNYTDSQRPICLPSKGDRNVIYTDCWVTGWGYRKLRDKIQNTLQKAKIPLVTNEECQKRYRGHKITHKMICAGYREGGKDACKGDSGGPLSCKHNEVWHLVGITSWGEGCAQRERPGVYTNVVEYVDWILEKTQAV
Sequence (P03951 19-387 partner limits assumed): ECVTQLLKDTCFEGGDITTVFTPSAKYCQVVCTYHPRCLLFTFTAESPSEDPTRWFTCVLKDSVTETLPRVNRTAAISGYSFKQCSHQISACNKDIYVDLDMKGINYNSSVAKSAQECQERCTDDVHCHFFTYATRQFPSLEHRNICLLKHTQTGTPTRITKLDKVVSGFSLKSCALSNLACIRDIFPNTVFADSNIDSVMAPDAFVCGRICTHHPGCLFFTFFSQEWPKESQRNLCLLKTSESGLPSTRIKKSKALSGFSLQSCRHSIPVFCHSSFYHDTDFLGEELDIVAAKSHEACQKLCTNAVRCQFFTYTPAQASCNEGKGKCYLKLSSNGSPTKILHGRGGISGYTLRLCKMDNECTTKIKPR
OUTCOME_MEASURE: Ki (µM)

>  <COMPOUND>
Cn1nncc1-c1cnc([C@H]2CCc3c4c(cc(=O)n32)-c2c(ccc(Cl)c2F)CCNC4=O)[nH]1 (stereo in doubt) [Compound 45]

>  <OUTCOME_MEASURE>
Ki

>  <UNIT_DESCRIPTOR>
µM

>  <OBSERVED_RESULT>
2.58

$$$$

A. Cn1ncc(-c2cnc(C(CC3CC3)n3cc4c(cc3=O)-c3c(ccc(Cl)c3F)CC3(CC3)NC4=O)[nH]2)cc1=O (single isomer, unassigned) [Compound 59]
B. Nc1ccc(-c2cnc([C@@H]3CCc4c5c(cc(=O)n43)-c3c(ccc(Cl)c3F)CCNC5=O)[nH]2)c(F)n1 (stereo in doubt) [Compound 46]
**Q:** Please tell me which of the two, A or B , has the higher reported Ki value. Pick one; state its label.
**A:** B
(B: 4.57 µM, A: 2.19 µM)

----------
molecular target: human plasma kallikrein (Homo sapiens, UniProt P03952); assay: Kallikrein inhibition assay utilizing a quenched AMC peptide substrate (FLINT); details: 30 min preincubation, 50 μM Z-Gly-Pro-Arg-AMC, 2 nM kallikrein
Sequence (P03952 391-638 limits assumed): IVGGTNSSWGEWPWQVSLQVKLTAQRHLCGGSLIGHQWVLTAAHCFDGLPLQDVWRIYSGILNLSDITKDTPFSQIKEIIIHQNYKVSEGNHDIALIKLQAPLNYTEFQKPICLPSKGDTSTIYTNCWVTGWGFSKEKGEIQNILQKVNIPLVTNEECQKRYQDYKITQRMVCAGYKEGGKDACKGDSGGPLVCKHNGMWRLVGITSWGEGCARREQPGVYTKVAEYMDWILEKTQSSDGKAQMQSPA
Sequence (P03952 20-390 partner limits assumed): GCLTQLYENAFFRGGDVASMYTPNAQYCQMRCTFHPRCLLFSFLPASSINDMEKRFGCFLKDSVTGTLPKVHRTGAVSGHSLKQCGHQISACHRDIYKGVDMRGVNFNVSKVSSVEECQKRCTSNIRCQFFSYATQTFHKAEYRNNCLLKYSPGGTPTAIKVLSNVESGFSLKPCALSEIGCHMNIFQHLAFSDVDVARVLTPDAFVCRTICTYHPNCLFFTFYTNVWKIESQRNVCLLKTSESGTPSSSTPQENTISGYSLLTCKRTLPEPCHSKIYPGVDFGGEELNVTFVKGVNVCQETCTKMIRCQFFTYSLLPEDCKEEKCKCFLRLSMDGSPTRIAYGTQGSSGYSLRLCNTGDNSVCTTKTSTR
pIC50: −log10 of the molar value.
OUTCOME_MEASURE: pIC50

>  <MOLECULE>
Nc1ccc(-c2cnc([C@H]3CCc4c5c(cc(=O)n43)-c3c(ccc(Cl)c3F)CCNC5=O)[nH]2)c(F)n1 (stereo in doubt) [Compound 47]

>  <pIC50>
6.40

$$$$
>  <MOLECULE>
O=C1NC2(CC2)Cc2ccc(Cl)c(F)c2-c2cc(=O)n3c(c21)CC[C@H]3c1ncc(-c2ccc3cncn3c2)[nH]1 (stereo in doubt) [Compound 23]

>  <pIC50>
6.27

$$$$

----------
target: human plasma kallikrein (Homo sapiens); experiment: Kallikrein inhibition assay utilizing a quenched AMC peptide substrate (FLINT); conditions: 30 min preincubation, 50 μM Z-Gly-Pro-Arg-AMC, 2 nM kallikrein
pIC50: −log10 of the molar value.
OUTCOME_MEASURE: pIC50

>  <MOLECULE>
Cc1nc2cc(-c3cnc([C@@H]4CCc5c6c(cc(=O)n54)-c4c(ccc(Cl)c4F)CC4(CC4)NC6=O)[nH]3)ccc2s1 (stereo in doubt) [Compound 4]

>  <pIC50>
< 5.00

$$$$
>  <MOLECULE>
O=C1NC2(CC2)Cc2ccc(Cl)c(F)c2-c2cc(=O)n(C(CC3CC3)c3ncc(-c4ccncc4)[nH]3)cc21 (single isomer, unassigned) [Compound 66]

>  <pIC50>
< 5.00

$$$$
>  <MOLECULE>
Nc1ccc(-c2cnc([C@@H]3CCc4c5c(cc(=O)n43)-c3c(ccc(Cl)c3F)CCNC5=O)[nH]2)c(Cl)n1 (stereo in doubt) [Compound 49]

>  <pIC50>
< 5.00

$$$$
>  <MOLECULE>
O=C1NC2(CC2)Cc2ccc(Cl)c(F)c2-c2cc(=O)n3c(c21)CC[C@H]3c1ncc(-c2ccc3[nH]ccc3c2)[nH]1 (single isomer, unassigned) [Compound 16]

>  <pIC50>
< 5.00

$$$$

Next molecule, pIC50 to be filled in.
**Q:** Entry O=C1NC2(CC2)Cc2ccc(Cl)c(F)c2-c2cc(=O)n3c(c21)CC[C@@H]3c1ncc(-c2ccc3[nH]ncc3c2)[nH]1 (stereo in doubt) [Compound 19] needs its pIC50 filled in; supply it.
**A:** 7.70
